# Test system: LOX IMVI melanoma
# protocol description: NCI tumour cell line growth inhibition, 48 h
The following compounds are shown together with reported GI50 values.
property label: GI50

- compound: "O=C(Nc1ccc(F)cc1)Nc1ccc(Br)c(C(F)(F)F)c1"
  property label: "GI50"
  assay result: "2510 nM"
- compound: "O=CN1N=C(c2cccc(Nc3ccnc4cc(Cl)ccc34)c2)CC1c1ccccc1 (configuration not stated)"
  property label: "GI50"
  assay result: "449 nM"
- compound: "C[C@]12CC[C@H]3[C@@H](CC4SC(N)=NC45C/C(=N/NC(N)=O)CC[C@]35C)[C@@H]1CCC2=O (some centres not stated)"
  property label: "GI50"
  assay result: "1710 nM"
- compound: "COc1ccc(/C=C2\\SC(=Nc3ccccc3)NC2=O)cc1"
  property label: "GI50"
  assay result: "5500 nM"
- compound: "CCC1(OC(=O)CN)C(=O)OCc2c1cc1n(c2=O)Cc2cc3ccccc3nc2-1 (configuration not stated)"
  property label: "GI50"
  assay result: "8.9 nM"
- compound: "Cc1ccc2c(c1)C(=O)c1c-2c(OCCCN(C)C)nc2ccccc12"
  property label: "GI50"
  assay result: "1180 nM"
- compound: "COC(=O)c1c2c(c(C)[n+]([O-])c1C)C(=O)C=C(NCc1cccc(Cl)c1)C2=O"
  property label: "GI50"
  assay result: "68.7 nM"
- compound: "COc1ccc(NC(=O)c2sc3nc(C)c(C(=O)/C=C/c4cccc(OC)c4)cc3c2N)cc1"
  property label: "GI50"
  assay result: "906 nM"
- compound: "Clc1ccc2nc(CI)c(CI)nc2c1"
  property label: "GI50"
  assay result: "1640 nM"
- compound: "NC(N)=NC(N)=NCCCc1ccco1"
  property label: "GI50"
  assay result: "52200 nM"
- compound: "CC(=O)O[C@H]1C(=O)[C@@]2(C)[C@H]([C@H](OC(=O)c3ccccc3)[C@]3(O)C[C@H](OC(=O)[C@H](OC(=O)OC[C@H]4COC(C)(C)O4)[C@@H](NC(=O)c4ccccc4)c4ccccc4)C(C)=C1C3(C)C)[C@]1(OC(C)=O)CO[C@@H]1C[C@@H]2O"
  property label: "GI50"
  assay result: "14 nM"
- compound: "C=C1C(=O)O[C@H]2[C@H]1CC/C(COC(=O)CCCc1c[nH]c3ccccc13)=C\\CC[C@@]1(C)O[C@@H]21"
  property label: "GI50"
  assay result: "1550 nM"
- compound: "CC(=O)/C=C/C1=C(c2csc3ccccc23)c2ccccc2CC1"
  property label: "GI50"
  assay result: "16900 nM"
- compound: "CCCCCCCC(=O)SCC/C=C/[C@@H]1CC(=O)NCc2nc(cs2)C2=N[C@@](C)(CS2)C(=O)N[C@@H](C(C)C)C(=O)N1"
  property label: "GI50"
  assay result: "19.8 nM"
- compound: "Cn1nc(C(F)(F)F)c(-c2cc(C(F)(F)F)cc(C(F)(F)F)c2)c1-c1ccc(OCc2ccc(Cl)cc2)cc1O"
  property label: "GI50"
  assay result: "1980 nM"
- compound: "C[C@H]1CNC(=O)c2cnn3ccc(nc23)N[C@H](C)c2cc(F)ccc2O1"
  property label: "GI50"
  assay result: "334 nM"
- compound: "C=C1C(=O)O[C@H]2[C@H]1CC/C(COC(=O)OC/C1=C/CC[C@@]3(C)O[C@H]3[C@H]3OC(=O)[C@@H](CN(C)C)[C@@H]3CC1)=C\\CC[C@@]1(C)O[C@@H]21"
  property label: "GI50"
  assay result: "1470 nM"
